assay: Stability of the compound assessed as hydrolysis liberating phenol in aqueous solution at pH 7.4 after 5 mins; format: physicochemical; details: read-out: Activity
Metric Name: degraded at 5 min

Record request: degraded at 5 min value, item "O=C(Oc1ccccc1)C(=O)Oc1ccccc1"
> 40%

* * *

target: Cocaine esterase (Homo sapiens, UniProt O00748); assay: Inhibition of human intestinal carboxylesterase assessed as hydrolysis of CPT-11 after 5 mins by HPLC
Sequence (O00748 whole entry): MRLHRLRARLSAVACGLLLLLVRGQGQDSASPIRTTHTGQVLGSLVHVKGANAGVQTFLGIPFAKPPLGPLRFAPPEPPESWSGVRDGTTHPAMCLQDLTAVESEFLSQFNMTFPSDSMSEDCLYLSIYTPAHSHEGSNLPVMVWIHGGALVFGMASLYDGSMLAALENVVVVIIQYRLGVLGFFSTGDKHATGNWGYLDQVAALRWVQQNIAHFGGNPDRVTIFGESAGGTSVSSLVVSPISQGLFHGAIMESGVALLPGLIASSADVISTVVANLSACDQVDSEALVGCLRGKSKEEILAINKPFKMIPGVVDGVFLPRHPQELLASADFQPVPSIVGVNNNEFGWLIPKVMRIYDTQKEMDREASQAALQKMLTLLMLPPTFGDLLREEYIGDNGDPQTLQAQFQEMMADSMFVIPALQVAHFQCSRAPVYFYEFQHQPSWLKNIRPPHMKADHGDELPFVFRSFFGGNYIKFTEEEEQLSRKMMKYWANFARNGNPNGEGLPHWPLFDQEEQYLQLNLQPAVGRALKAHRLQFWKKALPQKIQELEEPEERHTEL
Metric Name: Ki (nM)
Reply numerically in nM, unit not repeated.

Any idea what its Ki is? The compound is "CCC(=O)C(=O)c1ccccc1"
2010

* * *

molecular target: Cocaine esterase (Homo sapiens, UniProt O00748); assay: Inhibition of human intestinal carboxylesterase using o-nitrophenyl acetate as substrate after 5 mins by spectrophotometry
Metric Name: Ki (µM)
Output spec: scalar in µM, unitless text.

Lab note: need Ki for "O=C(C(=O)C1CCCCC1)C1CCCCC1" on Cocaine esterase (Homo sapiens, UniProt O00748), anyone have it?
0.072

// next record "O=C(Cc1ccccc1)C(=O)Cc1ccccc1"
21.6

What about "CCC(=O)C(=O)c1ccccc1" ?
2.42
